B1: GLTSCR2 (parent)
chain: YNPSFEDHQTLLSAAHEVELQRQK

# Variants of: B1
# method-summary: protein stability index of a GFP-peptide fusion (GPS, HEK-293T) (PSI 1-6); higher = more stable;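 note: lentivirally expressed fusions sorted by FACS into six bins by GFP to DsRed ratio, PSI derived from sequencing read proportions per bin multiplied by bin number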
# assay-context: c terminus: a fixed tail appended
measurement-label: protein stability index
// no unit, no text: just the number

| sequence-change | protein stability index |
| --- | --- |
| N2C | 2.74 |
| S4P | 4.69 |
| Q23F | 2.56 |
| E6T | 3.09 |
| E6N | 3.33 |

Moving on to the next variant.
Record Q21A , field protein stability index: 3.34

src = the supplement of paper PMC10567573
